- System: Malme-3M
- assay method text: NCI tumour cell line growth inhibition, 48 h
The source made the active and inactive calls. Rule as the data show it: active = GI50 up to about 1.1 µM and inactive = higher.
Labels: TRUE for active, FALSE for inactive

- molecule: "COc1cccc2c1C(=O)c1c(O)c3c(c(O)c1C2=O)C[C@@](O)(C(=O)CO)CC3OC1CC(NCCCC(OC(C)=O)OC(C)=O)C(O)C(C)O1 (stereo partly drawn)"
  assay system: "Malme-3M"
  label value: "TRUE"
- molecule: "CCOP(=O)(OCC)C(C(=O)OC)C(=O)C(=O)Nc1cccc([N+](=O)[O-])c1 (stereo not drawn)"
  assay system: "Malme-3M"
  label value: "FALSE"
- molecule: "FC(F)(F)c1ccc2c(c1)nc(Cc1ccc(Cl)cc1)n2CC1CCCN2CCCCC12 (stereo not drawn)"
  assay system: "Malme-3M"
  label value: "FALSE"
- molecule: "O=C(O)Cc1cccc2c(=O)cc(-c3ccccc3)oc12"
  assay system: "Malme-3M"
  label value: "FALSE"
- molecule: "COC1=CCC2=C(CCN(C(=O)C3CCC3)C2Cc2ccc(OC)c(O)c2)C1 (stereo not drawn)"
  assay system: "Malme-3M"
  label value: "FALSE"
- molecule: "NC(CCCNc1ccc(O)cc1)C(=O)O (stereo not drawn)"
  assay system: "Malme-3M"
  label value: "FALSE"
- molecule: "CC(C)(C)C(C#N)(C#N)c1ccc(C(C#N)(C#N)C(C)(C)C)nn1"
  assay system: "Malme-3M"
  label value: "FALSE"
- molecule: "CC1=CC(=O)N(c2c(C)cccc2Cl)C(C)N1 (stereo not drawn)"
  assay system: "Malme-3M"
  label value: "FALSE"
